Biological target: enkephalinase (Rattus norvegicus)
Construct: homogenizing corpus striatum of rat brain and by partial purification of the brain homogenate; from tissue; host or cells: corpus striatum of rat brain
Sequence (P07861 2-750 limits assumed): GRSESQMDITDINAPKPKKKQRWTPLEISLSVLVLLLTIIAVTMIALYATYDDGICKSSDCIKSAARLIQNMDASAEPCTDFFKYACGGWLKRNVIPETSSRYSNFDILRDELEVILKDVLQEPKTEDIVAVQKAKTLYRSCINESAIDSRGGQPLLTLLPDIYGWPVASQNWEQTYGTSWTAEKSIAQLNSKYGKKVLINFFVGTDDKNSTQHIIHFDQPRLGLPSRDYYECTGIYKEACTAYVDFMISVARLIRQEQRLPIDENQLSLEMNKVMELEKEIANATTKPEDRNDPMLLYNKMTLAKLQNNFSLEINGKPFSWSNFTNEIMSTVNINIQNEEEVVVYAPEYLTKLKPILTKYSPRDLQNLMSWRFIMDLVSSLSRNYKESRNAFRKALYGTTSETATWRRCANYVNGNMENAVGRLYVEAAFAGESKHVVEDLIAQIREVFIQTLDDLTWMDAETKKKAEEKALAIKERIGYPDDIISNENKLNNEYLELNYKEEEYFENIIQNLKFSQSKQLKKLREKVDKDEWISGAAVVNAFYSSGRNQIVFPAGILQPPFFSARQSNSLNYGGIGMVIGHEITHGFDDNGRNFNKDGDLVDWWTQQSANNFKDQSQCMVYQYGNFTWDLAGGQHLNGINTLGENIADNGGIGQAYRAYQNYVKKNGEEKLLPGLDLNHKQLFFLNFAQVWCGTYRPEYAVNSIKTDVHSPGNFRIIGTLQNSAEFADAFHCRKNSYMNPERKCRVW
Test: Inhibitory activity against enkephalinase (Test 1)
Assay type: biochemical
Settings: partially purified enkephalinase from rat brain corpus striatum; substrate methionine-enkephaline; 37° C., 1 hour; HPLC of Tyr-Gly-Gly
Parameter Inhibitory activity to enkephalinase ID50: see the listing below.
Measurement Kind: Inhibitory activity to enkephalinase ID50 (milimol)

Item Smiles | Assay Target | Uom | Number
C[C@H](NC(=O)[C@H](O)[C@H](N)Cc1ccccc1)C(=O)O | enkephalinase (Rattus norvegicus) | milimol | 5.98
CSCC[C@H](NC(=O)[C@@H](O)[C@H](N)Cc1ccccc1)C(=O)O | enkephalinase (Rattus norvegicus) | milimol | 2.78
CC(C)C[C@H](NC(=O)[C@H](O)[C@H](N)Cc1ccccc1)C(=O)O | enkephalinase (Rattus norvegicus) | milimol | 2.40

====

Parameter Analgesia enhancement (%): see the listing below.
Test system: Wistar rats
Test: Enhancement of morphine analgesia, tail-flick latency (Test 2)
Format: in vivo, rat
Conditions: 250 mg/kg test compound i.p. + 0.5 mg/kg morphine i.p.; morphine analgesia-non-effective rats; versus 0.5 mg/kg morphine alone
Measurement Kind: Analgesia enhancement (%)

Item Smiles | Measurement Kind | Number
CC(C)C[C@H](NC(=O)[C@H](O)[C@H](N)Cc1ccccc1)C(=O)O | Analgesia enhancement (%) | 24.9
CC(C)C[C@H](NC(=O)[C@@H](O)[C@H](N)Cc1ccccc1)C(=O)O | Analgesia enhancement (%) | 19.5
N[C@H](Cc1ccccc1)[C@H](O)C(=O)O | Analgesia enhancement (%) | 14.1
CC(C)C[C@H](NC(=O)[C@@H](O)[C@H](N)Cc1ccccc1)C(=O)N[C@H](CC(C)C)C(=O)O | Analgesia enhancement (%) | 5.2
N=C(N)NCCC[C@H](NC(=O)[C@H](O)[C@H](N)Cc1ccccc1)C(=O)O | Analgesia enhancement (%) | 13.6
N[C@H](Cc1ccc(O)cc1)[C@H](O)C(=O)N[C@H](Cc1ccccc1)C(=O)O | Analgesia enhancement (%) | 27.0
N[C@H](Cc1ccccc1)[C@H](O)C(=O)NCC(=O)O | Analgesia enhancement (%) | 19.1
CSCC[C@H](NC(=O)[C@@H](O)[C@H](N)Cc1ccccc1)C(=O)O | Analgesia enhancement (%) | 10.5

====

Tested on: Wistar rats
Test: Enhancement of morphine analgesia, tail-flick latency (Test 2)
Format: in vivo, rat
Details: 250 mg/kg test compound i.p. + 0.5 mg/kg morphine i.p.; morphine analgesia-non-effective rats; versus 0.5 mg/kg morphine alone

Item Smiles | Analgesia enhancement (%)
CSCC[C@H](NC(=O)[C@H](O)[C@H](N)Cc1ccccc1)C(=O)O | 14.7
CC(C)C[C@H](NC(=O)[C@H](O)[C@H](N)Cc1ccc(O)cc1)C(=O)O | 23.1
N[C@H](Cc1ccccc1)[C@H](O)C(=O)NCCC(=O)O | 12.0
CC(C)C[C@H](NC(=O)[C@@H](O)[C@H](N)Cc1ccc(O)cc1)C(=O)O | 34.5
